B1: 1ZHC (parent)
chain: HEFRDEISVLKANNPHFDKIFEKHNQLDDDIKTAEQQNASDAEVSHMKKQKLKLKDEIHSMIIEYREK

Variants of: B1
Assay: folding stability dG (cDNA display proteolysis); higher = more stable
Settings: PBS, room temperature
Give measured folding stability dG for each item. Keep answers brief.
One number for each entry, in kcal/mol.

* HEFRDEISVLKANNPHFDKIFEKINQLDDDIKTAEQQNASDAEVSHMKKQKLKLKDEIHSMIIEYREK [H24I] | 1.22
* HEFTDEISVLKANNPHFDKIFEKHNQLDDDIKTAEQQNASDAEVSHMKKQKLKLKDEIHSMIIEYREK [R4T] | 0.952

Hi there! I need folding stability dG for each item below, if you can.
1. HEFRDEISVLKANNAHFDKIFEKHNQLDDDIKTAEQQNASDAEVSHMKKQKLKLKDEIHSMIIEYREK [P15A]
2. HEFRDEISVLKANNPHFDKIFEKHNQLDDDIKTAEQQNASDAEVSHMKKQKLKLKDEIHSMFIEYREK [I62F]
3. HEFRDEISVLKANNPHFDKIFEKHNQLDDDINTAEQQNASDAEVSHMKKQKLKLKDEIHSMIIEYREK [K32N]
4. HEFRDEISVLKANNPHFDKIFEAHNQLDDDIKTAEQQNASDAEVSHMKKQKLKLKDEIHSMIIEYREK [K23A]
5. HEFRDEISVLKANNPHFDKIFEKHNQLDDDIKTAEQQHASDAEVSHMKKQKLKLKDEIHSMIIEYREK [N38H]
6. HEFHDEISVLKANNPHFDKIFEKHNQLDDDIKTAEQQNASDAEVSHMKKQKLKLKDEIHSMIIEYREK [R4H]
7. HEFRDEIFVLKANNPHFDKIFEKHNQLDDDIKTAEQQNASDAEVSHMKKQKLKLKDEIHSMIIEYREK [S8F]
8. HEFRDEISVLKANNPHFDKIFEKHNQLDDDIKTAEQQNASDAEVSHMYKQKLKLKDEIHSMIIEYREK [K48Y]

[0.443, 0.011, 0.323, 0.787, 0.624, 0.919, 1, 0.617]

Hi there! I need folding stability dG for each item below, if you can.
1. HEFRDEISVLKANNPHFDKIFEKHNQLDDDIKTAEIQNASDAEVSHMKKQKLKLKDEIHSMIIEYREK [Q36I]
2. HEFRDEISVLKANNPHFDKIFEKHNQLDDDIKTAEQQNASDAEVSHMKKQKLKLKDIIHSMIIEYREK [E57I]
3. HEFRDEISVLKANNPHFDKIFSKHNQLDDDIKTAEQQNASDAEVSHMKKQKLKLKDEIHSMIIEYREK [E22S]
4. HEFRDEISVLKANNEHFDKIFEKHNQLDDDIKTAEQQNASDAEVSHMKKQKLKLKDEIHSMIIEYREK [P15E]
5. HEFRDEISVLKANNWHFDKIFEKHNQLDDDIKTAEQQNASDAEVSHMKKQKLKLKDEIHSMIIEYREK [P15W]
6. HEFRDEISVLKANNPHFDKIFLKHNQLDDDIKTAEQQNASDAEVSHMKKQKLKLKDEIHSMIIEYREK [E22L]

1: 0.263; 2: 0.87; 3: 1.19; 4: 0.365; 5: 0.335; 6: 1.04

Data origin, for the record: the MegaScale stability set (Tsuboyama et al. 2023)
